- targetEntity: mutated human GLP-2R (Homo sapiens, UniProt O95838, E512D/G511A/L513V)
- Construct: expressed in transfected cells; host or cells: HEK 293E clonal cell line
- Sequence (O95838 1-553 G511A/E512D/L513V): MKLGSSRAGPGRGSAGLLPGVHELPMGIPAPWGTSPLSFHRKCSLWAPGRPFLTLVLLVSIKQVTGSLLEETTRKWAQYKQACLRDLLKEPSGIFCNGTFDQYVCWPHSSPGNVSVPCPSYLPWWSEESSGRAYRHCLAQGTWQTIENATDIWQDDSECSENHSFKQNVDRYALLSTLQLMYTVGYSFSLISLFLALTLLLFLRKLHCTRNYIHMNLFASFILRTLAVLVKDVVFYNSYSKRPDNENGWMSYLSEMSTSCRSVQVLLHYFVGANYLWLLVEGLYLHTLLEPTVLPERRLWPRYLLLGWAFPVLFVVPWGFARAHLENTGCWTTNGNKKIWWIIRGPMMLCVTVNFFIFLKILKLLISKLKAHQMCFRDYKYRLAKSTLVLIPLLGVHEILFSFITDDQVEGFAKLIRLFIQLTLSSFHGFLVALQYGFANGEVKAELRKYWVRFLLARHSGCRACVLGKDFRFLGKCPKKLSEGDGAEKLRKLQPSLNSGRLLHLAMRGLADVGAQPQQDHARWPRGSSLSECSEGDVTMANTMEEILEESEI
- experimentDescription: cAMP expression assay in HEK 293E clonal cell line expressing mutated human GLP-2R
- Format: cell-based
- setupConditions: Table 2; mimetibodies with Pro substitution; read-out: EC50
outcomeMeasure: pEC50
One number for each entry, as −log10 of the molar value.

Examples with answers:
{"substance": "SEQ ID NO: 43: GLP-2 mimetibody Pro substitution variant; core HGDGSFSDEMNTILDNLAARDFINWLIQTKITDGSGGGSGALVAVPSESKYGPPCPPCP (Mimetibody)", "pEC50": 8.32}
{"substance": "SEQ ID NO: 45: GLP-2 mimetibody Pro substitution variant; core […] (HGDGSFSDEMNTILDNLAARDFINWLIQTKITDGSGGGSGALVAVSSESKPGPPCPPCP)", "pEC50": 8.24}
{"substance": "SEQ ID NO: 42: GLP-2 mimetibody Pro substitution variant; core HGDGSFSDEMNTILDNLAARDFINWLIQTKITDGSGGGSGALVPVSSESKYGPPCPPCP (Mimetibody)", "pEC50": 8.44}

Tell me pEC50 reported for SEQ ID NO: 44: GLP-2 mimetibody Pro substitution variant; core HGDGSFSDEMNTILDNLAARDFINWLIQTKITDGSGGGSGALVAVSPESKYGPPCPPCP (Mimetibody)
8.11
